pIC50, human MMP14 (Homo sapiens (Human)), per-entry values.
pIC50: −log10 of the molar value.
quantity_kind: pIC50

{"columns": ["compound", "result"],
 "data": [
  ["CC(=O)NCC1(CCC(=O)N2CCN(c3cc(Cl)cc(Cl)c3)CC2)NC(=O)NC1=O (stereo not drawn)", "< 4.70"],
  ["C[C@H]1CN(C(=O)CCC2(c3ccccn3)NC(=O)NC2=O)CCN1c1cc(F)cc(Cl)c1 (stereo partly drawn)", "< 5.40"],
  ["Cc1cccc(C2(CCC(=O)N3CCN(c4cccc(F)c4)[C@@H](C)C3)NC(=O)NC2=O)n1 (stereo partly drawn)", "< 4.70"],
  ["CC(CC1(C)NC(=O)NC1=O)C(=O)N1CCN(c2cccc(Cl)c2)[C@@H](C)C1 (stereo partly drawn)", 5.91],
  ["Cc1ccc(C2(CCC(=O)N3CCN(c4ccc(F)c(Cl)c4)[C@@H](C)C3)NC(=O)NC2=O)cn1 (stereo partly drawn)", "< 5.40"],
  ["CC(CC1(C)NC(=O)NC1=O)C(=O)N1CCN(c2ccccc2)[C@@H](C)C1 (stereo partly drawn)", "< 5.40"],
  ["C[C@@H](CC1(C2CC2)NC(=O)NC1=O)C(=O)N1CCN(c2cccc(-c3cn[nH]c3)c2)[C@@H](C)C1 (stereo partly drawn)", 5.91],
  ["CC(CC1(CCN)NC(=O)NC1=O)C(=O)N1CCN(c2cc(Cl)cc(Cl)c2)CC1 (stereo not drawn)", "< 4.70"],
  ["CC(CC1(C2CN(C(=O)OC(C)(C)C)C2)NC(=O)NC1=O)C(=O)N1CCN(c2ccc(F)c(F)c2)CC1 (stereo not drawn)", 8.15],
  ["C[C@H]1CN(C(=O)CCC2(C3CC3)NC(=O)NC2=O)CCN1c1cccc(-c2cn[nH]c2)c1 (stereo partly drawn)", "< 4.70"],
  ["C[C@H]1CN(C(=O)CCC2(c3cccnc3)NC(=O)NC2=O)CCN1c1ccc(F)c(Cl)c1 (stereo partly drawn)", "< 4.70"],
  ["C[C@H]1CN(C(=O)CCC2(c3cnccn3)NC(=O)NC2=O)CCN1c1cc(F)cc(F)c1 (stereo partly drawn)", "< 5.40"],
  ["C[C@H]1CN(C(=O)CCC2(c3cccnc3)NC(=O)NC2=O)CCN1c1cc(F)cc(Cl)c1 (stereo partly drawn)", 6.08],
  ["C[C@H]1CN(C(=O)CCC2(c3cccnc3)NC(=O)NC2=O)CCN1c1cc(F)cc(F)c1 (stereo partly drawn)", "< 4.70"],
  ["CC(CC1(C)NC(=O)NC1=O)C(=O)N1CCN(c2cncc(Cl)c2)[C@@H](C)C1 (stereo partly drawn)", "< 4.70"]
]}
